Test system: Spodoptera litura
testDetails: Insecticidal activity against fifth-instar larvae of Spodoptera litura in cabbage leaf disk after 4 to 7 days by leaf dipping method
Assay type: functional, organism-based
property: EC50 (mgAi/L)

molecule="Cc1cc(C(F)(C(F)(F)F)C(F)(F)F)ccc1NC(=O)c1cccc(I)c1C(=O)NC(C)(C)CS(C)(=O)=O [FLUBENDIAMIDE]" property=EC50 resultunits=mgAi/L censoringoperator== observed=0.03
molecule=Cc1cc(Cl)ccc1NC(=O)c1ccc(Cl)cc1C(=O)NC(C)C property=EC50 resultunits=mgAi/L censoringoperator=> observed=500
molecule=Cc1cc(Cl)ccc1NC(=O)c1c(Cl)cccc1C(=O)NC(C)C property=EC50 resultunits=mgAi/L censoringoperator=> observed=500
molecule=Cc1cc(C(F)(C(F)(F)F)C(F)(F)F)ccc1NC(=O)c1cccc(I)c1C(=O)NC(C)(C)C property=EC50 resultunits=mgAi/L censoringoperator== observed=0.3
molecule=Cc1cc(Cl)ccc1NC(=O)c1cccc(I)c1C(=O)NC(C)C property=EC50 resultunits=mgAi/L censoringoperator== observed=3
molecule=Cc1cc(Cl)ccc1NC(=O)c1ccccc1C(=O)NC(C)C property=EC50 resultunits=mgAi/L censoringoperator== observed=10
molecule=Cc1cc(C(F)(C(F)(F)F)C(F)(F)F)ccc1NC(=O)c1cccc(I)c1C(=O)NC(C)C property=EC50 resultunits=mgAi/L censoringoperator== observed=0.3
molecule=CC(=O)NCC(C)(C)NC(=O)c1c(I)cccc1C(=O)Nc1ccc(C(F)(C(F)(F)F)C(F)(F)F)cc1C property=EC50 resultunits=mgAi/L censoringoperator== observed=0.1
molecule=Cc1cc(Cl)ccc1NC(=O)c1cccc(Cl)c1C(=O)NC(C)C property=EC50 resultunits=mgAi/L censoringoperator== observed=10
molecule=Cc1c(Cl)cccc1NC(=O)c1cccc(I)c1C(=O)NC(C)C property=EC50 resultunits=mgAi/L censoringoperator== observed=10
